Recorded values, source patent US5506217A.

test system: P388 DR (drug resistant P388); test: cytotoxicity IC50 (3H-thymidine uptake, colonogenic cell survival and MTT assays); type: cell-based; conditions: Mus musculus
pIC50: −log10 of the molar value.

# Molecule, pIC50
data = [
    ("CCCCCCCCCCCCCCCCOCC(CCP(=O)([O-])OCC[N+](C)(C)C)OC (stereo not shown)", 5.30),
]

---

system: WEHI-3B (mouse granulocytic leukemia); experiment: cytotoxicity IC50 (3H-thymidine uptake, colonogenic cell survival and MTT assays); format: cell-based; settings: WEHI3B

# Compound, Target Entity, Unit Name, IC50
rows = [
    ("CCCCCCCCCCCCCCCCOCC(CCP(=O)([O-])OCC[N+](C)(C)C)OC (stereo not shown)", "WEHI-3B (mouse granulocytic leukemia)", "nM", 2500),
]
